test system: Vero E6 infected with SARS-CoV-2; experiment: SARS-CoV-2 infection rate relative to infected DMSO; higher = more infection, active = 60 or less; conditions: 24 h

# Compound, Target or test system, SARS-CoV-2 infection rate [%]
records = [
    ("CNC(C)(C)Cc1ccccc1 [mephentermine] (10 µM)", "Vero E6 infected with SARS-CoV-2", 117),
    ("O=C1C(CC[S+]([O-])c2ccccc2)C(=O)N(c2ccccc2)N1c1ccccc1 (stereo not drawn) [sulfinpyrazone] (10 µM)", "Vero E6 infected with SARS-CoV-2", 108),
    ("NS(=O)(=O)c1cc2c(cc1Cl)NC(C(Cl)Cl)NS2(=O)=O (stereo not drawn) [trichlormethiazide] (10 µM)", "Vero E6 infected with SARS-CoV-2", 100),
    ("CS(=O)(=O)N(Cc1ccco1)C[C@@H](O)Cn1c2ccccc2c2ccccc21 (10 µM)", "Vero E6 infected with SARS-CoV-2", 91),
    ("CN(C)CCC=C1c2ccccc2C=Cc2ccccc21 [cyclobenzaprine] (10 µM)", "Vero E6 infected with SARS-CoV-2", 78),
    ("CC(/C=C/C(=O)NO)=C\\[C@@H](C)C(=O)c1ccc(N(C)C)cc1 [trichostatin-a] (0.833333 µM)", "Vero E6 infected with SARS-CoV-2", 108),
    ("CSc1cc2c(cc1C(F)(F)F)N(C(=O)Nc1cccnc1)CC2 (10 µM)", "Vero E6 infected with SARS-CoV-2", 112),
    ("Cc1c(C)c2c(c(C)c1O)CCC(C)(COc1ccc(CC3SC(=O)NC3=O)cc1)O2 (stereo not drawn) [troglitazone] (10 µM)", "Vero E6 infected with SARS-CoV-2", 89),
]
